- Tested on: Escherichia coli
- Procedure text: In vitro synergistic activity against Escherichia coli C600N + (Sme-1)
- Format: functional
Consider the following molecules and their measured MIC readings.

Molecule: CC(C)(O/N=C(\C(=O)N[C@@H]1C(=O)N2C(C(=O)[O-])=C(C[n+]3ccccc3)CS[C@H]12)c1csc(N)n1)C(=O)O
Cmp: =
MIC (µg/mL): 0.5

Molecule: CCN1CCN(C(=O)NC(C(=O)N[C@@H]2C(=O)N3[C@@H]2SC(C)(C)[C@@H]3C(=O)[O-])c2ccccc2)C(=O)C1=O.C[C@]1(Cn2ccnn2)C(C(=O)[O-])N2C(=O)C[C@H]2S1(=O)=O.[Na+].[Na+] (stereo partly drawn)
Cmp: =
MIC (µg/mL): 8

Molecule: C[C@]1(COC(=O)Cc2ccc(O)c(O)c2)[C@H](C(=O)[O-])N2C(=O)/C(=C/c3ccccn3)C2S1(=O)=O.[Na+] (stereo partly drawn)
Cmp: >
MIC (µg/mL): 64
